From: ChEMBL document CHEMBL2218924

residual activity values for the compounds below.
- experimental_system: Serine/threonine-protein kinase PLK2 (Homo sapiens) (UniProt Q9NYY3)
- Sequence (Q9NYY3 whole entry, looked up): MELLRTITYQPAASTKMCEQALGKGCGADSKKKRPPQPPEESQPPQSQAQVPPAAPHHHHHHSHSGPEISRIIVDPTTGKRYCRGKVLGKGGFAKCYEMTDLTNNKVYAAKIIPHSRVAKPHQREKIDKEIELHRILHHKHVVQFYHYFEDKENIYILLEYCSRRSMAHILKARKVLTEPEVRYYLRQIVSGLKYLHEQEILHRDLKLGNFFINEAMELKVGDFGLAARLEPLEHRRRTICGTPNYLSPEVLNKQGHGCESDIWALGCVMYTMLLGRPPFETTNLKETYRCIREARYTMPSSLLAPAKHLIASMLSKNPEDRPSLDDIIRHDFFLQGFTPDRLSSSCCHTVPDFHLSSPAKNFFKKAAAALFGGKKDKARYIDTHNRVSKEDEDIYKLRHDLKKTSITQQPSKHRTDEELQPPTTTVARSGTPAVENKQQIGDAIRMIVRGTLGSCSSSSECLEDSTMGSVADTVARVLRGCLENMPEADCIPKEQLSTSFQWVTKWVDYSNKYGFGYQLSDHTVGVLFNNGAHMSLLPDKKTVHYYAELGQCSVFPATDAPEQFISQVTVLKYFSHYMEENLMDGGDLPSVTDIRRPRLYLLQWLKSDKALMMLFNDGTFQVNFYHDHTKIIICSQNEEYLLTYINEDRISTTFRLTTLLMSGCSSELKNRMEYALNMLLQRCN
- study_conditions: at 10 µM
- Description: Millipore: Percentage of residual kinase activity of PLK2 at 10uM relative to control. Control inhibitor: Phosphoric acid* at 0.3uM. Buffer: 8 mM MOPS pH 7.0, 0.2 mM EDTA
Give the figure together with its unit, number first.

Some solved entries appear below for comparison.
[
  {
    "chemical_string": "O=C1Nc2ccccc2/C1=C\\c1c(Cl)[nH]c2ccccc12",
    "experimental_system": "Serine/threonine-protein kinase PLK2 (Homo sapiens) (UniProt Q9NYY3)",
    "residual activity": "80%"
  },
  {
    "chemical_string": "O=C(c1cc2cc(O)ccc2[nH]1)c1cc2cc(O)ccc2[nH]1",
    "experimental_system": "Serine/threonine-protein kinase PLK2 (Homo sapiens) (UniProt Q9NYY3)",
    "residual activity": "78%"
  },
  {
    "chemical_string": "COc1cc2ncnc(Nc3cccc(Cl)c3)c2cc1OC",
    "experimental_system": "Serine/threonine-protein kinase PLK2 (Homo sapiens) (UniProt Q9NYY3)",
    "residual activity": "82%"
  }
]

Field: next compound
Can you share its residual activity? I mean this compound: O=C1C(Cl)=C(N2C(=O)CCC2=O)C(=O)c2ccccc21
90%
